melting point values for the compounds below.

CCCCn1c(=O)[nH]c(=O)c2c1nc(CO)n2CCC	134 to 136 °C
O=C(O)CC1CCS(=O)(=O)C1 (stereo unspecified)	87 to 89 °C
CN(c1cc(C(=O)O)ccn1)C1CCCC1	179 to 181 °C

Query: Supply recorded melting point for COc1ccc(C(C)=O)cc1CS(=O)CC(=O)O (stereo unspecified) here.
Result: 93 to 95 °C

====

REPORTED METRIC: melting point

Clc1ncnc2ccc(Br)cc12	166 to 168 °C
N#Cc1ccc(Cn2cnc(N)n2)cc1	169 to 171 °C
NNC(=O)c1ccc(F)cc1Cl	161 to 163 °C
NNC(=O)CSc1ccccc1O	134 to 136 °C
Cn1ccnc1Sc1ccccc1N	121 to 123 °C

Query: Supply recorded melting point for O=C(O)C1CCS(=O)(=O)CC1 here.
Result: 184 to 186 °C

Query: Supply recorded melting point for Cn1ccc(C(=O)NC2(C(=O)O)CCCCCC2)cc1=O here.
Result: 242 to 244 °C

Query: Supply recorded melting point for CCOCCCNC(=O)CC#N here.
Result: 45 to 49 °C

Query: Supply recorded melting point for FC(F)(F)Cn1c(-c2ccccc2)cnc1S here.
Result: 179 to 181 °C

Query: Supply recorded melting point for Cc1ccc(Br)cc1S(N)(=O)=O here.
Result: 139 to 141 °C

Query: Supply recorded melting point for COC(=O)c1cc2c(Br)cccc2[nH]1 here.
Result: 159 to 161 °C

====

melting point values for the compounds below.

Past entries and their recorded results:
CC(=O)c1nc2ccc(Cl)cc2[nH]1	173 to 175 °C
Cc1ccc(-c2cnc(CCC(=O)O)o2)cc1C	159 to 161 °C
Cc1ccnn1-c1cccc(N)c1	93 to 95 °C

Query: Supply recorded melting point for ClCc1nnc(-c2c(Cl)cccc2Cl)o1 here.
Result: 46 to 48 °C

Query: Supply recorded melting point for CC(C)C(Br)C(=O)NC1CCCCC1 (stereo unspecified) here.
Result: 116 to 118 °C

Query: Supply recorded melting point for Cc1sc(N)nc1-c1ccc(Cl)cc1 here.
Result: 146 to 148 °C

Query: Supply recorded melting point for CS(=O)(=O)c1ccc(N)c(Br)c1 here.
Result: 207 to 209 °C

====

melting point values for the molecules below.

CC(C)c1nnc(CCC(=O)O)o1	84 to 86 °C
O=C(O)c1ccccc1N1CCCCC1	59 to 61 °C
O=C(O)COc1ccc(Br)cc1F	106 to 108 °C
CC1CCN(C(=O)c2ccc(Cl)nc2)CC1	69 to 71 °C
O=c1oc2ccccc2nc1NO	254 to 256 °C

Query: Supply recorded melting point for Cc1cc(C)n2nc(CCCO)nc2n1 here.
Result: 89 to 91 °C

Query: Supply recorded melting point for Nc1ccc(N2CCOC2=O)cc1 here.
Result: 149 to 151 °C

====

melting point values for the molecules below.

O=C(O)CCc1nc2c(F)cccc2[nH]1	185 to 187 °C
O=Cc1ccc(-c2ccc(Cl)cc2)s1	83 to 87 °C

Query: Supply recorded melting point for O=C(O)CSc1nnc(NC2CCCCC2)s1 here.
Result: 157 to 159 °C

====

melting point values for the compounds below.

Brc1c[nH]c2nc(C3CCCO3)nc-2c1 (stereo not drawn)	219 to 221 °C

Query: Supply recorded melting point for CC(C)CNS(=O)(=O)c1ccc(C(=O)O)cc1 here.
Result: 238 to 240 °C

Query: Supply recorded melting point for CC1CCC(C(C)C)C(NC(=O)c2ccnc(F)c2)C1 (stereo not drawn) here.
Result: 79 to 81 °C

Query: Supply recorded melting point for O=C(O)c1cc(-c2cc(F)ccc2F)no1 here.
Result: 187 to 189 °C

Query: Supply recorded melting point for Cc1ccc(C)c(S(=O)(=O)Nc2cccc(C(=O)O)c2)c1 here.
Result: 217 to 219 °C

Query: Supply recorded melting point for O=C(O)c1c[nH]cc1C1CC1 here.
Result: 150 to 152 °C

Query: Supply recorded melting point for CCN(CC)C(=O)c1ccccc1N here.
Result: 71 to 73 °C

Query: Supply recorded melting point for OCc1sc(N2CCOCC2)nc1-c1ccccc1 here.
Result: 118 to 120 °C

Query: Supply recorded melting point for CN(C)C(=O)c1cc(S(=O)(=O)Cl)cn1C here.
Result: 105 to 107 °C

Query: Supply recorded melting point for CCOc1ccc(OC)cc1N here.
Result: 45 to 47 °C

====

REPORTED METRIC: melting point

Past entries and their recorded results:
COc1csc(C(=O)O)c1	167 to 169 °C
[N-]=[N+]=NC(=O)c1ccco1	60 to 62 °C
O=C(O)c1ncn(-c2ccccc2)n1	179 to 181 °C
COc1ccnc(NCc2cccc(C(=O)O)c2)n1	219 to 221 °C
O=C(O)c1ccc(N/N=C/c2cccc(F)c2)cc1	229 to 231 °C
c1ccc(-c2ccc3[nH]ccc3c2)cc1	74 to 76 °C

Consider now this further compound.
Query: Supply recorded melting point for O=[N+]([O-])c1ccc(CO)c(Br)c1 here.
Result: 81 to 83 °C

====

melting point values for the compounds below.

Past entries and their recorded results:
Clc1cc[nH]n1	68 to 70 °C
COC(=O)c1cc(Br)cc(N)c1Cl	73 to 75 °C
O=C(O)c1cnn(-c2ncccc2Cl)c1C(F)F	178 to 180 °C
O=C(O)c1ccn(-c2cccc(Cl)c2)n1	143 to 145 °C
NC(=O)c1cc(S(=O)(=O)NCC(=O)O)c[nH]1	279 to 281 °C
CCC(=O)Nc1cccc(C#N)c1	84 to 86 °C
CCOC(=O)C(C(C)=O)C1CCS(=O)(=O)C1 (configuration not stated)	71 to 80 °C
Cn1c(=O)c2cc(N)cnc2n(C)c1=O	219 to 221 °C
CCOC(=O)COc1ccc(S(C)(=O)=O)cc1[N+](=O)[O-]	131 to 133 °C
Cc1ccc(S(C)(=O)=O)cc1S(=O)(=O)Cl	136 to 138 °C

Query: Supply recorded melting point for Cc1cnn(CCC(=O)O)c1 here.
Result: 94 to 96 °C

Query: Supply recorded melting point for COc1cc(OC)c2cc(CCCN)[nH]c2c1 here.
Result: 113 to 115 °C

Query: Supply recorded melting point for Nc1c(-c2ccccc2)ncn1N here.
Result: 126 to 128 °C

Query: Supply recorded melting point for O=C(O)c1ccc(-c2nc3ccccc3s2)o1 here.
Result: 180 to 188 °C

Query: Supply recorded melting point for NNc1ccnc(F)c1 here.
Result: 98 to 100 °C

Query: Supply recorded melting point for CC(C)(c1cc(N)on1)S(C)(=O)=O here.
Result: 179 to 181 °C

Query: Supply recorded melting point for CC(C)[C@H](NC(=O)c1c(F)cccc1F)C(=O)O here.
Result: 172 to 174 °C

====

melting point values for the compounds below.

Past entries and their recorded results:
NS(=O)(=O)c1cccc2c1N=S=N2	128 to 130 °C
O=C(OCc1ccccc1)N1CCCC(CS(=O)(=O)Cl)C1 (centres undefined)	81 to 83 °C
Cc1ccc(NC(=O)CCl)cc1Cl	73 to 75 °C

Query: Supply recorded melting point for CCc1c(C)sc2[nH]c(COCC(=O)O)nc(=O)c12 here.
Result: 193 to 195 °C

Query: Supply recorded melting point for ClCc1nc(-c2cccnc2)no1 here.
Result: 87 to 89 °C

Query: Supply recorded melting point for Nc1ccc(-n2cncn2)c(F)c1 here.
Result: 126 to 128 °C

Query: Supply recorded melting point for NC(=O)Cn1cc(C(=O)O)nn1 here.
Result: 198 to 200 °C

Query: Supply recorded melting point for N#CC(N)c1cccc(Cl)c1Cl (centres undefined) here.
Result: 114 to 116 °C

Query: Supply recorded melting point for O=C(O)C(Oc1cc(Cl)ccc1Cl)c1ccccc1 (centres undefined) here.
Result: 144 to 146 °C

Query: Supply recorded melting point for Nc1cc2c(cc1Sc1ccccc1)OCCO2 here.
Result: 74 to 76 °C

Query: Supply recorded melting point for O=C(O)C1CC(=O)N(CCN2CCOCC2)C1 (centres undefined) here.
Result: 159 to 161 °C

Query: Supply recorded melting point for COCCOc1cccc(C(=O)O)c1 here.
Result: 80 to 82 °C

Query: Supply recorded melting point for O=C(O)c1cnoc1-c1ccco1 here.
Result: 195 to 197 °C

Query: Supply recorded melting point for CS(=O)(=O)CC1(CC(=O)O)CC1 here.
Result: 89 to 91 °C

Query: Supply recorded melting point for Cc1ccc(Cn2nc(C)c(C(=O)O)c2C)cc1 here.
Result: 134 to 136 °C

Query: Supply recorded melting point for Nc1nc(CCl)nc(Nc2ccc(F)cc2)n1 here.
Result: 170 to 172 °C

Query: Supply recorded melting point for CCOc1ccc(OCCCC(=O)O)cc1 here.
Result: 104 to 106 °C

Query: Supply recorded melting point for O=[N+]([O-])c1ccc2c(c1)NCCS2 here.
Result: 142 to 144 °C

Query: Supply recorded melting point for CCn1nc(C(C)C)cc1C(=O)O here.
Result: 115 to 117 °C

Query: Supply recorded melting point for Nc1ncc(Br)cc1F here.
Result: 87 to 89 °C

Query: Supply recorded melting point for OCc1cnc2ccccn12 here.
Result: 123 to 125 °C
